- Tested on: RPMI-8226
- Protocol details: NCI tumour cell line growth inhibition, 48 h
Calls of active or inactive are those of the source. No stated cut-off is given here; in the data, active = GI50 up to about 1.1 µM and inactive = higher.
Outcomes: active, inactive

[
  {
    "Compound": "CC(CC(=O)N1C2CC3CCC2(CS1(=O)=O)C3(C)C)[Si](C)(C)C (configuration not stated)",
    "Class": "inactive"
  },
  {
    "Compound": "O=[N+]([O-])c1cc2[nH]nnc2c2nonc12",
    "Class": "inactive"
  },
  {
    "Compound": "CSc1ccc(N2C(=O)C3c4[nH]c5ccccc5c4C4CCC(C(C)(C)C)CC4C3C2=O)cc1 (configuration not stated)",
    "Class": "inactive"
  },
  {
    "Compound": "CC(C)=CCC/C(C)=C/Cc1c(O)c(C)cc2c1[nH]c1cc(O)ccc12",
    "Class": "inactive"
  },
  {
    "Compound": "CC1=C(C)CC2(CCCCC2=O)[S+]([O-])C1 (configuration not stated)",
    "Class": "inactive"
  },
  {
    "Compound": "CS(=O)(=O)N1CC(CCl)c2ccc(NCCN)cc21 (configuration not stated)",
    "Class": "inactive"
  },
  {
    "Compound": "CCCCN(CCCC)CCC(O)c1cc2c(Cl)cc(Cl)cc2c2cc(C(F)(F)F)ccc12 (configuration not stated)",
    "Class": "inactive"
  },
  {
    "Compound": "CC1=C[C@@H]2Cc3nc4cc(Cl)ccc4c(N)c3[C@H](C1)C2",
    "Class": "inactive"
  },
  {
    "Compound": "O=C(O)CC1(C(=O)O)CCCCC1",
    "Class": "inactive"
  },
  {
    "Compound": "Cc1nc(=O)n2c(C)n[nH]c2c1C(=O)O",
    "Class": "inactive"
  },
  {
    "Compound": "COC(=O)c1s/c(=N\\C(=S)N(C)C)n(-c2ccc(Cl)cc2)c1C(=O)OC",
    "Class": "inactive"
  },
  {
    "Compound": "COc1cccc(-c2nc(-c3cnccn3)n(COCCO)n2)c1",
    "Class": "inactive"
  },
  {
    "Compound": "COC(=O)C1=C(O)C(C(=O)OC)C2CC(=O)CC1C2(C)C (configuration not stated)",
    "Class": "inactive"
  },
  {
    "Compound": "Cn1c(=O)c2c(ncn2CN2CCN(Cn3cnc4c3c(=O)n(C)c(=O)n4C)CC2)n(C)c1=O",
    "Class": "inactive"
  },
  {
    "Compound": "O=C(NCCCCCCNCc1cccc2ccccc12)Nc1cccc2ccccc12",
    "Class": "inactive"
  },
  {
    "Compound": "CC(C)NC(=O)OCc1c(COC(=O)NC(C)C)n(C)c2c1ccc1sccc12",
    "Class": "inactive"
  },
  {
    "Compound": "COc1ccc2c(-c3csc(-c4c[nH]c5ccc(Br)cc45)n3)c[nH]c2c1",
    "Class": "inactive"
  },
  {
    "Compound": "O=C(Nc1ccc(Cl)cc1)c1cc(S(=O)(=O)Nc2nc3cccnc3[nH]2)c(SSc2cc(Cl)c(C(=O)Nc3ccc(Cl)cc3)cc2S(=O)(=O)Nc2nc3cccnc3[nH]2)cc1Cl",
    "Class": "inactive"
  },
  {
    "Compound": "CN(/N=C/c1cccc2cccnc12)c1ccccc1",
    "Class": "inactive"
  },
  {
    "Compound": "CN(C)CC1CCCCCC(Br)C1=O (configuration not stated)",
    "Class": "active"
  },
  {
    "Compound": "Brc1cc2c(cc1Br)CN(c1ccccc1)C2",
    "Class": "inactive"
  },
  {
    "Compound": "CC(=O)N/C=C/c1cc(O)ccc1O",
    "Class": "inactive"
  }
]
